Cited source: patent US20150152080A1

Biological target: CCR2 (Homo sapiens, UniProt P41597)
Construct: expressed in transfected cells; geneticin and hygromycin selection
Sequence (P41597 whole entry, species assumed): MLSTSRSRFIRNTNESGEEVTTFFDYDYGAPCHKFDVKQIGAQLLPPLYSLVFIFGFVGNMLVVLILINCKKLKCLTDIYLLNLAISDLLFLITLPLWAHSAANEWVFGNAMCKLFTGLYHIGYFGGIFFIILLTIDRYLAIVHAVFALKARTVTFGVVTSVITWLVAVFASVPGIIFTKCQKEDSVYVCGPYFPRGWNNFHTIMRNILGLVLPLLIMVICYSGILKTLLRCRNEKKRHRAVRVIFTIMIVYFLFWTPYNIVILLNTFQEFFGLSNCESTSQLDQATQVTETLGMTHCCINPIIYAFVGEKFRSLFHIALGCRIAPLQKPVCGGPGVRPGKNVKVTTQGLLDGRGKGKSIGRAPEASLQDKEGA
Assay: Calcium activity assay on FLIPR Tetra in HEK-Gqi5 cells stably expressing CCR2
Assay type: cell-based
Conditions: read-out: CCR2 ANTAGONISM Rel. Eff. (%)
PROPERTY: Emax (%)

INSERT INTO measurements (compound, measurement_unit, number) VALUES
  ('O=C(O)c1ccccc1CSc1ccc(F)cc1NS(=O)(=O)c1cc2ccccc2s1 [Compound 14]', '%', 96),
  ('Nc1cccc(CS(=O)(=O)c2ccc(Cl)cc2NS(=O)(=O)c2cc3ccccc3s2)c1 [Compound 7]', '%', 98),
  ('O=S(=O)(Cc1ccccc1)c1ncccc1NS(=O)(=O)c1cc2ccccc2s1 [Compound 11]', '%', 93);

a. O=C(O)c1ccccc1CSc1ccc(Cl)cc1NS(=O)(=O)c1cc2ccccc2s1 [Compound 2]
b. COC(=O)c1ccccc1CSc1ccc(F)cc1NS(=O)(=O)c1cc2ccccc2s1 [Compound 13]
c. O=S(=O)(Nc1cccnc1SCc1ccccc1)c1cc2ccccc2s1 [Compound 10]
Would you mind ranking these compounds by ascending Emax? To answer, write out the labels according to the requested order.
c, b, a

---

Target: CCR2 (Homo sapiens, UniProt P41597)
Construct: geneticin and hygromycin selection
Test: Calcium activity assay on FLIPR Tetra in HEK-Gqi5 cells stably expressing CCR2
PROPERTY: IC50 (nM)

INSERT INTO measurements (compound, property, number) VALUES
  ('Cc1ccc(NS(=O)(=O)c2cc3ccccc3s2)c(SCc2ccccc2C(=O)O)c1 [Compound 9]', 'IC50', 114),
  ('COC(=O)c1ccccc1CSc1ccc(Cl)cc1NS(=O)(=O)c1cc2ccccc2s1 [Compound 1]', 'IC50', 198);

A. COC(=O)c1ccccc1CSc1ccc(F)cc1NS(=O)(=O)c1cc2ccccc2s1 [Compound 13]
B. O=S(=O)(Nc1cccnc1[S+]([O-])Cc1ccccc1)c1cc2ccccc2s1 (stereo not drawn) [Compound 12]
C. O=C(O)c1ccccc1CSc1ccc(Cl)cc1NS(=O)(=O)c1cc2ccccc2s1 [Compound 2]
D. O=S(=O)(Cc1ccccc1)c1ncccc1NS(=O)(=O)c1cc2ccccc2s1 [Compound 11]
E. O=S(=O)(Nc1cccnc1SCc1ccccc1)c1cc2ccccc2s1 [Compound 10]
Would you mind ranking these compounds by ascending IC50? To answer, write out the labels according to the requested order.
C, D, B, A, E

---

Molecular target: CCR2 (Homo sapiens, UniProt P41597)
Construct: expressed in transfected cells; geneticin and hygromycin selection
Experiment: Calcium activity assay on FLIPR Tetra in HEK-Gqi5 cells stably expressing CCR2
Format: cell-based
Details: read-out: CCR2 ANTAGONISM Rel. Eff. (%)
PROPERTY: Emax (%)

INSERT INTO assay_data (compound, target_desc, number) VALUES
  ('Cc1ccc(NS(=O)(=O)c2cc3ccccc3s2)c(SCc2ccccc2C(=O)O)c1 [Compound 9]', 'CCR2 (Homo sapiens, UniProt P41597)', 88),
  ('O=S(=O)(Nc1cccnc1[S+]([O-])Cc1ccccc1)c1cc2ccccc2s1 (stereo not shown) [Compound 12]', 'CCR2 (Homo sapiens, UniProt P41597)', 72),
  ('COC(=O)c1ccccc1CSc1ccc(Cl)cc1NS(=O)(=O)c1cc2ccccc2s1 [Compound 1]', 'CCR2 (Homo sapiens, UniProt P41597)', 86),
  ('Cc1ccc(SCc2ccccc2C(=O)O)c(NS(=O)(=O)c2cc3ccccc3s2)c1 [Compound 4]', 'CCR2 (Homo sapiens, UniProt P41597)', 99);
